B1: library; numbered along this chain (parent)
chain: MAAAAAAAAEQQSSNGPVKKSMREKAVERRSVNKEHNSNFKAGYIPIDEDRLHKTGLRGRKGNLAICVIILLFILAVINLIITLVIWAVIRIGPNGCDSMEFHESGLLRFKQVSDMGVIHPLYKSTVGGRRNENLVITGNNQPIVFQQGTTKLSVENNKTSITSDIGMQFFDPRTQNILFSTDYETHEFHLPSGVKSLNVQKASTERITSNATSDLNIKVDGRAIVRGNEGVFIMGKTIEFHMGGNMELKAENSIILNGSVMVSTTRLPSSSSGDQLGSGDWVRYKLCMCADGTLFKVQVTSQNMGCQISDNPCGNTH

- Variants of: B1
- assay_info: SGCB cell-surface expression functional score (HA stain, bin4 vs bin1, normalised to synonymous) (log10 ratio); higher = more cell-surface SGCB (functional)
Assign yes (1) whenever SGCB cell-surface expression functional score (log10) does not fall below -0.7; assign no (0) whenever it does.

>  <mutation>
Q148P

>  <qualitative_label>
no (0)

$$$$
>  <mutation>
G231E

>  <qualitative_label>
yes (1)

$$$$
>  <mutation>
T317Y

>  <qualitative_label>
yes (1)

$$$$
>  <mutation>
S99R

>  <qualitative_label>
no (0)

$$$$
>  <mutation>
I239V

>  <qualitative_label>
yes (1)

$$$$
>  <mutation>
M243A

>  <qualitative_label>
yes (1)

$$$$
>  <mutation>
K219H

>  <qualitative_label>
yes (1)

$$$$
>  <mutation>
I78M

>  <qualitative_label>
yes (1)

$$$$
>  <mutation>
P173W

>  <qualitative_label>
no (0)

$$$$
